Test system: matriptase (Homo sapiens)
Construct: purchased R&D Systems (Bio-Techne) 3946-SEB
Sequence (Q9Y5Y6 615-855 limits assumed): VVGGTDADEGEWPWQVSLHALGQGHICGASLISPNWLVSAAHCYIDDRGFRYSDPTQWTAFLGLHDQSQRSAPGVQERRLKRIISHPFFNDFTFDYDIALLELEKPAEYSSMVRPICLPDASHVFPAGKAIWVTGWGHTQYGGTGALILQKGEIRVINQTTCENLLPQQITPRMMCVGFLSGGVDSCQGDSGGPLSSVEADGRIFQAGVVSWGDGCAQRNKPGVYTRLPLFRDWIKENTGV
Protocol: FRET-based kinetic analysis of matriptase cleavage
Assay type: biochemical
Test context: Abz/Dnp-labelled 6-mer peptide, 10 nM matriptase, PBS, 37°C, Michaelis-Menten fit, average ± SD, n = 3
Recorded Vmax by entry

Substance: GAKSRR [MtpB9]
Vmax: 0.04 ± 0.0007 µM/s
--
Substance: VPRGRR [MtpC5]
Vmax: 0.06 ± 0.0005 µM/s
--
Substance: LSGRSDNH [Mtp-control, reference compound]
Vmax: 0.02 ± 0.0057 µM/s
--
Substance: HYKGRK [MtpC9]
Vmax: 0.06 ± 0.0021 µM/s
